test system: LPS-induced microglia activation; experiment: Image-based assay of LPS-induced microglia activation (HTS and dose response); format: cell-based, rat; details: Rattus norvegicus, Microglia, Table 6; read-out: LPS IC50 (uM) (Suppl. Table 7)
experimental.readout: IC50 (µM)
The figure you give is taken to be in µM; do not add the unit.

[in] Query: IC50; subject: CC(=O)OCC(=O)[C@@]1(O)CC[C@H]2[C@@H]3CCC4=CC(=O)C=C[C@]4(C)[C@@]3(Cl)[C@@H](Cl)C[C@@]21C [Dichlorisone acetate, reference compound]
[out] 4

====

Catalogue of compounds with associated pIC50
test system: fibrin-induced microglia activation; experiment: Image-based assay of fibrin-induced microglia activation (HTS and dose response); format: cell-based, rat; settings: Rattus norvegicus, Microglia, 48 h, Table 1; dose response 0.001-20 μM, triplicates, primary rat microglia, 48 h; read-out: Fibrin IC50
Structures can show the parent of a compound that is named as a salt.
Just so you know, pIC50 here is -log10 of the concentration in molar units; reply with that number alone.

Example entries begin here.
compound	pIC50
N[C@H](C(=O)O)[C@@H]1CC(Cl)=NO1	5.70
C=C1C[C@H]2[C@@H]3C=C(C)C4=CC(=O)CC[C@]4(C)[C@H]3CC[C@]2(C)[C@@]1(OC(C)=O)C(C)=O [Melengestrol acetate, reference compound]	7.15
Cc1cccc(C(=O)O)c1O [Hydroxytoluic acid, reference compound]	4.70
CC(=O)O[C@H]1C[C@@]2(C)[C@@H](C[C@@H](O)[C@H]3[C@@]4(C)CC[C@@H](O)[C@@H](C)[C@@H]4CC[C@@]32C)/C1=C(\CCC=C(C)C)C(=O)O [Fusidic acid, reference compound]	4.72

[in] Could you share which pIC50 value was measured for COc1ccccc1N1CCN(CC(O)COc2cccc3ccccc23)CC1 (stereo not drawn) [Naftopidil dihydrochloride, reference compound] ?
[out] 5.15
